Biological target: T1, ZFP SBS#765 (synthetic)
T1 chain: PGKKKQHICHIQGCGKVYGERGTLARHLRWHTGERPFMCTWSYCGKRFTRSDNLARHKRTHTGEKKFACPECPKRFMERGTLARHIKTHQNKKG
Test: EMSA
Details: tags: MBP fusion
assayEndpoint: Kd (nM)
Report as a plain number; the unit nM is understood.

Entry GCCGAGGCCG (dsDNA) DNA 1: GCCGAGGCCG DNA 2: CGGCCTCGGC ; Kd = 262
